- System: Candida albicans
- Assay Explanation: In vitro antifungal activity against Candida albicans 13004 by broth microdilution method
- Assay type: functional
Quantity Measured: MIC (µg/mL)
Please respond with the number in µg/mL and leave the unit unwritten.

Reference set, count: 2
[
  {
    "Compound String": "CCCCCCCCCCCCC[C@H](CC(=O)N[C@@H](C(=O)N[C@H](C)C(=O)N[C@@H](Cc1ccc(OCC(=O)O)cc1)C(=O)N[C@H](C(=O)N1C[C@H](O)C[C@H]1C(=O)N[C@@H](C(=O)N[C@H](C(=O)N1CC[C@H](O)[C@H]1C(=O)N[C@H](C(=O)NCC(=O)N[C@@H](C(N)=O)[C@@H](C)O)[C@H](O)CC(N)=O)[C@@H](C)O)[C@@H](C)O)C(C)C)[C@@H](C)O)OC(=O)[C@@H](C)CCCN",
    "System Name": "Candida albicans",
    "Quantity Measured": "MIC",
    "Units Of Measure": "µg/mL",
    "Observed Value": 0.5
  },
  {
    "Compound String": "CCCCCCCCCCCCC[C@H](CC(=O)N[C@@H](C(=O)N[C@H](C)C(=O)N[C@@H](Cc1ccc(O)c(NC(=O)C[C@H](N)C(=O)O)c1)C(=O)N[C@H](C(=O)N1C[C@H](O)C[C@H]1C(=O)N[C@@H](C(=O)N[C@H](C(=O)N1CC[C@H](O)[C@H]1C(=O)N[C@H](C(=O)NCC(=O)N[C@@H](C(N)=O)[C@@H](C)O)[C@H](O)CC(N)=O)[C@@H](C)O)[C@@H](C)O)C(C)C)[C@@H](C)O)OC(=O)[C@@H](C)CCCN",
    "System Name": "Candida albicans",
    "Quantity Measured": "MIC",
    "Units Of Measure": "µg/mL",
    "Observed Value": 1
  }
]

// below: MIC requested for another compound
Answer with the recorded MIC of CCCCCCCCCCCCC[C@H](CC(=O)N[C@@H](C(=O)N[C@H](C)C(=O)N[C@@H](Cc1ccc(OCC(=O)N(C)C)cc1)C(=O)N[C@H](C(=O)N1C[C@H](O)C[C@H]1C(=O)N[C@@H](C(=O)N[C@H](C(=O)N1CC[C@H](O)[C@H]1C(=O)N[C@H](C(=O)NCC(=O)N[C@@H](C(N)=O)[C@@H](C)O)[C@H](O)CC(N)=O)[C@@H](C)O)[C@@H](C)O)C(C)C)[C@@H](C)O)OC(=O)[C@@H](C)CCCN only.
1

---

- Tested on: Candida albicans
- Assay Explanation: In vitro antifungal activity against Candida albicans 13004 by broth microdilution method
- Type: functional
Numbered stars: 1 amine (or outer) side, 2 acyl side, 3 side chain; on linkers, the order of the positions; unused ones are H or OH. Bridge positions count the residues as written; N and C are the ends. Square brackets hold non-standard residues; d marks the D form. Peptide text beside a SMILES is read from it. X3 = O=C(O)CCC(=O)Nc1cc(C[C@H](N[*:1])C(=O)[*:2])ccc1O; Gln(3R-OH) = NC(=O)C[C@@H](O)[C@H](N)C(=O)O; X1 = CCCCCCCCCCCCC[C@H](CC(=O)[*:1])O[*:2]; Pro(3S-OH) = O=C(O)[C@H]1NCC[C@@H]1O; Hyp = O=C(O)[C@@H]1C[C@@H](O)CN1; Orn = NCCC[C@H](N)C(=O)O
Quantity Measured: MIC (µg/mL)
Please respond with the number in µg/mL and leave the unit unwritten.

GET MIC where system = Candida albicans and item = CCCCCCCCCCCCC[C@@H]1CC(=O)N[C@@H]([C@@H](C)O)C(=O)N[C@@H](C)C(=O)N[C@@H](Cc2ccc(O)c(NC(=O)CCC(=O)O)c2)C(=O)N[C@@H](C(C)C)C(=O)N2C[C@H](O)C[C@H]2C(=O)N[C@@H]([C@@H](C)O)C(=O)N[C@@H]([C@@H](C)O)C(=O)N2CC[C@H](O)[C@H]2C(=O)N[C@@H]([C@H](O)CC(N)=O)C(=O)NCC(=O)N[C@@H]([C@@H](C)O)C(=O)N[C@@H](CCCN)C(=O)O1 (TA[X3]V[Hyp]TT[Pro(3S-OH)][Gln(3R-OH)]GT[Orn]; linker N-C via X1)
1
